Values from PubChem BioAssay AID1963868

Tested on: KRAS PDC tumor spheroids (HUVEC+MSC), viability;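 also: spheroids exposed to compounds for seven days before readout; 100% = DMSO vehicle control luminescence of the spheroids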
Procedure Text: Anticancer human tumor 254851-301-R-J1-PDC patient-derived colon carcinoma cell line growth inhibition [KRAS2]
Reported Conditions: second compound 3.16 µM; first compound 10 µM; stronger effect = lower value
viability, T/C reference
Report only the number, with the unit % understood.

>  <Molecule>
CC1(C)CCC(CN2CCN(c3ccc(C(=O)NS(=O)(=O)c4ccc(NCC5CCOCC5)c([N+](=O)[O-])c4)c(Oc4cnc5[nH]ccc5c4)c3)CC2)=C(c2ccc(Cl)cc2)C1 + C=CC(=O)N1CCN(c2nc(=O)n(-c3c(C)ccnc3C(C)C)c3nc(-c4c(O)cccc4F)c(F)cc23)C(C)C1

>  <Quantity>
viability, T/C

>  <Result>
84.9

$$$$

Let us move to another entry and its viability, T/C.
Summary: CC1(C)CCC(CN2CCN(c3ccc(C(=O)NS(=O)(=O)c4ccc(NCC5CCOCC5)c([N+](=O)[O-])c4)c(Oc4cnc5[nH]ccc5c4)c3)CC2)=C(c2ccc(Cl)cc2)C1 + CC1OCC2(CCN(c3cnc(Sc4ccnc(N)c4Cl)c(N)n3)CC2)C1N , KRAS PDC tumor spheroids (HUVEC+MSC), viability, viability, T/C = 33
